Test system: T-47D*
measurement-notes: Breast cancer cell viability, 48 hours, MTA assay
Assay type: cell-based
test-context: Homo sapiens, T47D; T-47D*, single agent, 48 hours; read-out: IC50
pIC50: −log10 of the molar value.
# pIC50 per entry

>  <molecule>
COc1cccc2c1C(=O)c1c(O)c3c(c(O)c1C2=O)C[C@@](O)(C(=O)CO)C[C@@H]3O[C@H]1C[C@H](N)[C@H](O)[C@H](C)O1 [Doxorubicin]

>  <pIC50>
6.82

$$$$
>  <molecule>
CS(=O)(=O)CCNCc1ccc(-c2ccc3ncnc(Nc4ccc(OCc5cccc(F)c5)c(Cl)c4)c3c2)o1 [Lapatinib]

>  <pIC50>
4.63

$$$$
>  <molecule>
CS(=O)(=O)N1CCN(Cc2cc3nc(-c4cccc5[nH]ncc45)nc(N4CCOCC4)c3s2)CC1 [GDC-0941]

>  <pIC50>
6.21

$$$$

---

Entries annotated with measured IC50
System: ZR-75-1
measurement-notes: Breast cancer cell viability, 48 hours, MTA assay
Assay type: cell-based
test-context: Homo sapiens; ZR-75-1, single agent, 48 hours; read-out: IC50
Excerpt: Cell viabilities were used to calculate “Fraction Affected” (Fa) and “Combination Index” (CI) values using the Chou-Talalay method. Any combination with a CI value<0.70 at a Fa value between 0.25 and 0.75 was defined as positive synergy.
measured-quantity: IC50 (nM)

>  <sample-smiles>
CS(=O)(=O)CCNCc1ccc(-c2ccc3ncnc(Nc4ccc(OCc5cccc(F)c5)c(Cl)c4)c3c2)o1

>  <experimental-result>
2690

$$$$
>  <sample-smiles>
COc1cccc2c1C(=O)c1c(O)c3c(c(O)c1C2=O)C[C@@](O)(C(=O)CO)C[C@@H]3O[C@H]1C[C@H](N)[C@H](O)[C@H](C)O1

>  <experimental-result>
130

$$$$
>  <sample-smiles>
CS(=O)(=O)N1CCN(Cc2cc3nc(-c4cccc5[nH]ncc45)nc(N4CCOCC4)c3s2)CC1

>  <experimental-result>
210

$$$$

---

System: MDA-MB-453
measurement-notes: Breast cancer cell viability, 48 hours, MTA assay
Format: cell-based
test-context: Homo sapiens; MDA-MB-453, single agent, 48 hours; read-out: IC50
pIC50: −log10 of the molar value.
Item-by-item account of pIC50

>  <sample-smiles>
CS(=O)(=O)N1CCN(Cc2cc3nc(-c4cccc5[nH]ncc45)nc(N4CCOCC4)c3s2)CC1

>  <pIC50>
6.54

$$$$
>  <sample-smiles>
CS(=O)(=O)CCNCc1ccc(-c2ccc3ncnc(Nc4ccc(OCc5cccc(F)c5)c(Cl)c4)c3c2)o1

>  <pIC50>
6.89

$$$$
>  <sample-smiles>
COc1cccc2c1C(=O)c1c(O)c3c(c(O)c1C2=O)C[C@@](O)(C(=O)CO)C[C@@H]3O[C@H]1C[C@H](N)[C@H](O)[C@H](C)O1

>  <pIC50>
6.66

$$$$

---

System: HCC38
measurement-notes: Breast cancer cell viability, 48 hours, MTA assay
Format: cell-based
test-context: Homo sapiens, HCC38, 48 h

>  <sample-smiles>
O=C(CCCCCCNC(=O)c1cnc(N(c2ccccc2)c2ccccc2)nc1)NO

>  <unit-abbrev>
µM

>  <IC50>
7.76

$$$$

---

Tested on: BT-549
measurement-notes: Breast cancer cell viability, 48 hours, MTA assay
Format: cell-based
test-context: Homo sapiens, BT-549, 48 h
measured-quantity: IC50 (µM)

>  <sample-smiles>
O=C(CCCCCCNC(=O)c1cnc(N(c2ccccc2)c2ccccc2)nc1)NO

>  <experimental-result>
8.97

$$$$
